Ref: PubChem BioAssay

Reported z-score by item:
assay: Plasmodium falciparum growth inhibition, primary screen, strain 3D7, DAPI fluorescence, 100 nL (AID 1184);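 further: parasites grown inside human red blood cells in medium with human serum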; details: P. falciparum 3D7 growth, 3 d, higher = more signal
Enter the number alone.

molecule="CCC1=C2CN(Cc3ccccc3Br)[C@@H]([C@@H](O)Cc3ccccc3)C2C=CCC1 (some centres undefined)" assay_readout=z-score reading=-1.92

State its z-score: CC(=O)NCCCC[C@@H]1NC(=O)[C@H]2C[C@@H](C(=O)NCCCCCCN(C)C)[C@@H](c3cccc(OCCO)c3)N2C1=O
-0.0473

Provide z-score value for the following molecule: COCCOC(=O)N1C(=O)[C@@]2(c3cc(C#CCNC(N)=O)ccc31)[C@H](c1ccccc1OCCO)N1[C@H](c3ccccc3)[C@H](c3ccccc3)OC(=O)[C@H]1[C@@H]2C(=O)NC[C@H](O)c1ccccc1
-1.84

Given the molecule COc1cc([C@@H]2N[C@H](C(=O)O)Cc3c2[nH]c2ccccc32)cc(OC)c1OC , write its reported z-score.
-0.0372
